Molecular target: CYP2C9 (Homo sapiens, UniProt P11712)
Sequence (P11712 whole entry): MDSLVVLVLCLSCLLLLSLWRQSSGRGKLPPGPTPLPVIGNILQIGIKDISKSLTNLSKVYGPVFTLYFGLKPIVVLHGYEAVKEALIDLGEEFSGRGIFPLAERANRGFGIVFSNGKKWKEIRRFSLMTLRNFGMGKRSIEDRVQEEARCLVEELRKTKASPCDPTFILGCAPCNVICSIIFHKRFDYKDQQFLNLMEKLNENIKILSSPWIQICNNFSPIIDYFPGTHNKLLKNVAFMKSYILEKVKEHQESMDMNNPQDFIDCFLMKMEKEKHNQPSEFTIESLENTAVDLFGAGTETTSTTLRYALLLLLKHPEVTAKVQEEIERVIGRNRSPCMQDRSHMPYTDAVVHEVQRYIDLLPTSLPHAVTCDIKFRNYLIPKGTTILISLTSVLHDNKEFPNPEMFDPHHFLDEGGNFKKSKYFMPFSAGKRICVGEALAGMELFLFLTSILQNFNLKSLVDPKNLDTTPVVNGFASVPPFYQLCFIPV
Assay: CYP450 inhibition, fluorescent substrate assay, CYP2C9
Format: biochemical
Settings: pH 7.4, 10 μM test compound, substrate MFC 200 μM, 30 min, read-out: 2C9-MFC % inh.
READOUT_LABEL: inhibition at 30 min, 10 μM

What is its inhibition at 30 min, 10 μM for CYP2C9 (Homo sapiens, UniProt P11712)? Entry: CC(C)CN(C[C@@H](O)[C@H](Cc1ccccc1)NC(=O)OCc1cncs1)C(=O)c1cccc(Br)c1
98%

Same again, this time with CC(C)CN(C[C@@H](O)[C@H](Cc1ccccc1)NC(=O)OCc1cncs1)C(=O)c1ccco1
95%

Same again, this time with CC(C)CN(C[C@@H](O)[C@H](Cc1ccccc1)NC(=O)OCc1cncs1)C(=O)c1ccc2c(c1)OCO2
97%

Same again, this time with CC(C)CN(C[C@@H](O)[C@H](Cc1ccccc1)NC(=O)OCc1cncs1)C(=O)c1ccc(Br)cc1
98%

====

Target: CYP3A4 (Homo sapiens, UniProt P08684)
Construct: host or cells: E. coli
Sequence (P08684 whole entry): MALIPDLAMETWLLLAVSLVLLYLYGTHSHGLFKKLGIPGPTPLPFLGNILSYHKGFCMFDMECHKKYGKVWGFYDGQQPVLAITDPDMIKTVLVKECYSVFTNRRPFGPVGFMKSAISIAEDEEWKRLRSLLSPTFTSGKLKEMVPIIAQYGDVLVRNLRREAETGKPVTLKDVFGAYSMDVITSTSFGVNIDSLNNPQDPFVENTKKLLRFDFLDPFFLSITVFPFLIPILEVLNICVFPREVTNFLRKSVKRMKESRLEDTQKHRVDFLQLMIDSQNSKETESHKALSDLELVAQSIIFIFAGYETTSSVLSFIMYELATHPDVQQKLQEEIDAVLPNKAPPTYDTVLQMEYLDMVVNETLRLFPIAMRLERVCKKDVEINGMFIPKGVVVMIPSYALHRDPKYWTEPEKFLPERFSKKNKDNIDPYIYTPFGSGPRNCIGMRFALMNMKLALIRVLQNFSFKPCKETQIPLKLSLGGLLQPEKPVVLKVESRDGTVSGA
Assay: CYP450 inhibition, fluorescent substrate assay, CYP3A4
Format: biochemical
Conditions: pH 7.4, 10 μM test compound, substrate DBF 1 μM, 10 min, read-out: 3A4-DBF % inh.
Procedure: Assay 4: CYP450 Inhibition […] This fluorescent molecule was measured using a fluorescent plate reader (Victor2 (Wallac) or Fluoroskan (Labsystems)). Compounds inhibiting the enzymatic reaction will result in a decrease of fluorescent signal. CYP P450 enzymes were prepared in house or commercially bought and stored at −80° C. [table] The assay was performed in black 96 well Costar plates. […] Then, the reaction was stopped by the addition of 200 μl acetonitrile, and the fluorescent signal was detected. […]
READOUT_LABEL: inhibition at 10 min, 10 μM (%)
Number in %, nothing else.

Give its inhibition at 10 min, 10 μM value. Item: CC(C)CN(C[C@@H](O)[C@H](Cc1ccccc1)NC(=O)OCc1cncs1)C(=O)c1ccco1
95

====

Molecular target: CYP2D6 (Homo sapiens)
Construct: host or cells: E. coli
Sequence (P10635 whole entry): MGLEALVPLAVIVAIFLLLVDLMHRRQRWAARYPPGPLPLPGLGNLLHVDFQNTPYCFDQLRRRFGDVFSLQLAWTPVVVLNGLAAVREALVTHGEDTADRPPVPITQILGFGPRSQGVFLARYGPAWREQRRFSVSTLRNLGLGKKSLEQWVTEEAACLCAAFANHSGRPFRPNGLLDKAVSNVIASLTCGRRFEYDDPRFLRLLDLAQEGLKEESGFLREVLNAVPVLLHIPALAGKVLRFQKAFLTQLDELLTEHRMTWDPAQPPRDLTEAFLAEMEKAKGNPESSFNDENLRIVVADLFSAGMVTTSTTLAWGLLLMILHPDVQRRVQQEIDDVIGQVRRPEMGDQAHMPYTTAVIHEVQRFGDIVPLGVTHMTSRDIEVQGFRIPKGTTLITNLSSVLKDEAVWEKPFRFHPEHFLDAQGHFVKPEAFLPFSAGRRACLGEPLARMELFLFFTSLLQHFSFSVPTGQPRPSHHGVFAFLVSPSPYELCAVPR
Assay: CYP450 inhibition, fluorescent substrate assay, CYP2D6
Type: biochemical
Conditions: E. coli expressed CYP2D6, pH 7.4, probe AMMC (3 μM), 10 μM test compound, substrate AMMC 3 μM, read-out: 2D6-AMMC % inh.
READOUT_LABEL: inhibition at 45 min, 10 μM (%)
Number in %, nothing else.

Give its inhibition at 45 min, 10 μM value. Item: CC(C)CN(C[C@@H](O)[C@H](Cc1ccccc1)NC(=O)OCc1cncs1)C(=O)c1cccc(C(F)(F)F)c1
86

Same again, this time with CC(C)CN(C[C@@H](O)[C@H](Cc1ccccc1)NC(=O)OCc1cncs1)C(=O)C1CCC(F)(F)CC1
65

Same again, this time with CC(C)CN(C[C@@H](O)[C@H](Cc1ccccc1)NC(=O)OCc1cncs1)C(=O)c1cccc(Cl)c1
41

Same again, this time with CC(C)CN(C[C@@H](O)[C@H](Cc1ccccc1)NC(=O)OCc1cncs1)C(=O)CCc1cncs1
96

====

Test system: wild-type HIV-1 IIIB strain
Test: Antiviral activity in MT4 LTR-EGFP cellular assay
Format: cell-based
Settings: Human immunodeficiency virus 1, 72 h; wild-type HIV-1 IIIB, MT4 LTR-EGFP cells, three days after infection; pEC50 = -log10(EC50); read-out: Antiviral Activity IIIB pEC50 (converted)
READOUT_LABEL: EC50 (µM)
Number in µM, nothing else.

What is its EC50 for wild-type HIV-1 IIIB strain? Entry: Cc1ccc(C(=O)N(CC(C)C)C[C@@H](O)[C@H](Cc2ccccc2)NC(=O)OCc2cncs2)cc1
52.5

Same again, this time with CC(C)CN(C[C@@H](O)[C@H](Cc1ccccc1)NC(=O)OCc1cncs1)C(=O)c1cccc(C(F)(F)F)c1
38

Same again, this time with O=C(N[C@@H](Cc1ccccc1)[C@H](O)CN(CC1CCCCC1)C(=O)c1ccncc1)OCc1cncs1
74.1

Same again, this time with CC(C)CN(C[C@@H](O)[C@H](Cc1ccccc1)NC(=O)OCc1cncs1)C(=O)c1ccc(Cl)cc1
38.9

Same again, this time with CC(C)CN(C[C@@H](O)[C@H](Cc1ccccc1)NC(=O)OCc1cncs1)C(=O)c1cccc(Cl)c1
50.1
